Entry source: the supplement of paper PMC3842684

# System: P. falciparum NF54-pfs16-GFP early (I-III) stage gametocytes
# Experiment notes: relative % inhibition of viable gametocyte number; higher = more gametocytocidal
# Conditions used: 5 µM; stage: early (I-III) gametocyte; incubation 72 h
Each record's relative % inhibition is compared with class 1: < 10%; class 2: ≥ 10% and < 50%; class 3: ≥ 50% to give its class.

Look over these answered cases.
c1ccc(Cn2c(N=Nc3c(Nc4ccccc4)ccc4ccccc34)nc3ccccc32)cc1; class 3
CCN(CC)CCNc1ncnc2c1[nH]c1ccc(Br)cc12; class 3
O=C(Nc1ccc(F)c(Cl)c1)Nc1ccc(Cl)c(Cl)c1; class 3
Oc1ccc(Cl)cc1CNc1nc2ccccc2[nH]1; class 2

Query :: Which class does `CCOc1ccc(-n2cc(-c3ccccc3)c3c(SCc4cc(C)ccc4C)ncnc32)cc1` fall in?
Result :: class 1

Query :: Which class does Cc1cc(NC(=O)C2c3ccccc3C(=O)N(CC(C)C)C2c2cccs2)no1 (stereo not given) fall in?
Result :: class 3

Query :: Which class does CCOc1cc2c(cc1OCC)C(c1cc(Cl)c(O)c(OCC)c1)NCC2 (stereo not given) fall in?
Result :: class 3

Query :: Which class does `COc1ccc(Nc2cc(C)nc(NCc3ccccc3)n2)cc1` fall in?
Result :: class 2

Query :: Which class does `COc1ccc2sc(N(Cc3cccnc3)C(=O)c3ccc(C#N)cc3)nc2c1` fall in?
Result :: class 1

Query :: Which class does `CN1c2ccccc2N(C)C1c1ccc2c(c1)OCO2` fall in?
Result :: class 1

Query :: Which class does OC(CNCC1CCCO1)Cn1c2ccc(Cl)cc2c2cc(Cl)ccc21 (stereo not given) fall in?
Result :: class 2

Query :: Which class does `Cc1ccc2cc3c(N)c4c(C)ccc(C)c4nc3nc2c1` fall in?
Result :: class 3

Query :: Which class does `O=C(Nc1cccc(-c2nc3ccccc3[nH]2)c1)c1cccc(NC(=O)c2ccco2)c1` fall in?
Result :: class 2

Query :: Which class does CC(Oc1ccc(NC(=O)c2cccs2)cc1)C(=O)c1ccc(Cl)cc1 (stereo not given) fall in?
Result :: class 2

Query :: Which class does `CCOC(=O)c1cnc2c(CC)cccc2c1O` fall in?
Result :: class 1

Query :: Which class does CCCN(CCC)CC(O)COc1ccccc1C(=O)Nc1ccccc1 (stereo not given) fall in?
Result :: class 3

Query :: Which class does `COc1ccccc1C(=O)ON=C(N)Cc1cccc2ccccc12` fall in?
Result :: class 3

Query :: Which class does `CCCCOc1ccc(C(=O)Nc2cc(C)on2)cc1` fall in?
Result :: class 2

Query :: Which class does `Cc1cc(C=C2SC(=Nc3ccccc3)N(C3CCCC3)C2=O)c(C)n1-c1ccc(Cl)cc1` fall in?
Result :: class 1

Query :: Which class does `CCOc1ccccc1NC(=O)CN1CCN(C(=O)c2ccco2)CC1` fall in?
Result :: class 1

Query :: Which class does `COc1ccc2nc(C)cc(Nc3cccc(O)c3)c2c1` fall in?
Result :: class 1

###

Reported values of relative % inhibition for individual entries
# System: P. falciparum NF54-pfs16-GFP early (I-III) stage gametocytes
# Experiment notes: relative % inhibition of viable gametocyte number; higher = more gametocytocidal
# Conditions used: 5 µM; stage: early (I-III) gametocyte; incubation 72 h
Write down the numeric answer in % and omit the unit.

# count of solved cases: 3
COc1ccc(C(=O)NC(c2ccccc2Cl)c2cc(Cl)c3cccnc3c2O)cc1 (centres undefined); 49.4
Cc1cc(C)cc(Nc2cc(C)nc3nc(C(F)(F)F)nn23)c1; 10
O=C(Nc1ccccc1O)c1ccc(Oc2cccc(C(=O)Nc3ccccc3O)c2)cc1; 50.6

Consider the record given below.
Query :: Consider the compound shown here: `Cc1ccc(-c2cc(C(=O)Nc3ccc(S(=O)(=O)N4CCCCC4)cc3)[nH]n2)c(O)c1` What is its recorded relative % inhibition?
Result :: 51
